# credit: PubChem BioAssay

Test: adipocyte viability effects, profiling panel, cell-based, 3T3-L1 adipocytes, calcein-AM fluorescence, 48 h, basal (AID 1163); also: test concentration not given here
Settings: 3T3-L1 adipocytes viability, higher = more signal
assayReadout: z-score
// return a plain number; no unit text

Q) Recorded z-score for COCCOC(=O)N1C(=O)[C@@]2(c3cc(C#CCC(C(=O)OC)C(=O)OC)ccc31)[C@H](C(=O)N1CCCCCCC1)[C@H]1C(=O)O[C@H](c3ccccc3)[C@H](c3ccccc3)N1[C@@H]2c1ccc(OCCO)cc1 , please?
A) 1.27

Next:
Q) Recorded z-score for CC(=CC1CCCCC1)[C@@H](NC(=O)c1ccc(C(F)(F)F)cc1)c1ccc(-c2ccccc2)cc1 , please?
A) -0.791

Q) Now consider Cc1ccc(S[C@]2(C(=O)NCC(C)C)CC(=O)N(Cc3ccccc3)[C@@H]2c2ccc(CO)cc2I)cc1 and answer again.
A) 0.752

Q) Now consider Cc1ccc(S[C@]2(C(=O)O)CC(=O)N(C3Cc4ccccc4C3)[C@@H]2c2ccc(CO)cc2I)cc1 and answer again.
A) 0.278

Q) Now consider COc1ccc(CCNC(=O)[C@@]2(c3ccc([N+](=O)[O-])cc3)CC(=O)N(CC34CC5CC(CC(C5)C3)C4)[C@@H]2c2ccc(CO)cc2)cc1 and answer again.
A) 0.369

Q) Now consider O=C(O)[C@@]1(Cc2ccccc2)N=C(c2ccc(OCCCO)cc2)O[C@H]1c1ccccc1 and answer again.
A) -0.664

Q) Now consider CC(=O)NCCCC[C@@H]1NC(=O)[C@H]2C[C@@H](C(=O)NCCCCCC[N+](C)(C)C)[C@@H](c3cccc(OCCO)c3)N2C1=O and answer again.
A) 1.14

Q) Now consider CC(C)c1ccc(NN2C(C(O)c3cccc(O)c3)C=CC3C(=O)N(c4ccccc4)C(=O)C32)cc1 (configuration not stated) and answer again.
A) -0.35

Q) Now consider O=C1O[C@@H](c2ccccc2)[C@@H](c2ccccc2)N2[C@@H](c3ccc(OCCO)cc3)[C@]3(C(=O)Nc4ccc(C#CC5=CCCCC5)cc43)[C@@H](C(=O)O)[C@H]12 and answer again.
A) 0.771

Q) Now consider COCCOC(=O)N1C(=O)[C@@]2(c3cc(C#CCNC(N)=O)ccc31)[C@H](c1ccc(OCCO)cc1)N1[C@H](c3ccccc3)[C@H](c3ccccc3)OC(=O)[C@H]1[C@@H]2C(=O)N1CCc2cc(OC)c(OC)cc2C1 and answer again.
A) 0.427

Q) Now consider C[N+](C)(C)CCCCCCNC(=O)[C@H]1C[C@H]2C(=O)N3CCC[C@H]3C(=O)N2[C@H]1c1ccc(O)cc1 and answer again.
A) 0.262

Q) Now consider COCCCNC(=O)[C@@]1(C)c2ccccc2C(=O)N(Cc2cc(C(F)(F)F)cc(C(F)(F)F)c2)[C@H]1c1ccc(CO)cc1 and answer again.
A) -0.872
